Values compiled from PubChem BioAssay.

Listed here: items and their measured composite z-score.
assay: probe aCHRDL2 binding to arrayed compounds – biochemical, biotinylated probe, 635/667 nm fluorescence, primary screen (AID 1100); conditions: small-molecule microarray, higher = more signal
Form: value (number only, do not type unit).

• COC(=O)[C@@H]1N=C(c2ccc(OCCCO)cc2)O[C@@H]1C = 0.795
• CCOC(=O)C[C@H]1[C@H](OC(=O)Cc2ccc3c(c2)OCO3)[C@@H](NC(=O)c2ccc3ccccc3n2)c2cc(OCCCO)ccc2N1C(=O)c1ccc2ccccc2n1 = -0.0731
• COC(=O)[C@@]1(Cc2ccc(OC)cc2)[C@H]2c3cc(C(=O)N(C)C)n(Cc4ccc(C)o4)c3C[C@H]2CN1C(=O)c1ccccc1 = 0.923
• Cc1cc(C)c(C(O)C2C=CC3C(=O)N(c4ccccc4)C(=O)C3N2Nc2ccccc2F)c(C)c1 (stereo unspecified) = 0.706
• CC1CC/C=C\[C@H]2OC34C=CCN(C(C)(C)C)C(=O)[C@H]3N(CCCCCO)C(=O)[C@@H]4C2C(=O)O1 (stereo partly specified) = 0.2
• O=C1O[C@@H](c2ccccc2)[C@@H](c2ccccc2)N2[C@@H](c3ccc(OCCO)cc3)[C@]3(C(=O)Nc4ccc(C#CC5=CCCCC5)cc43)[C@@H](C(=O)NC[C@H](O)c3ccccc3)[C@H]12 = -0.762
• O=C1OCCC/C=C\[C@H]2OC34C=CCN(c5ccc6ccccc6c5)C(=O)[C@H]3N(CCO)C(=O)[C@@H]4C12 (stereo partly specified) = 0.256
• CCOC(=O)C1=C[C@@H](c2ccccc2)N(S(=O)(=O)c2ccc(C)cc2)[C@H]1c1ccc(OC)cc1 = 1.05
• COc1cc2c(cc1O)C(C1CC1)N(Cc1cccc(OC(F)(F)F)c1)CC2 (stereo unspecified) = 0.542
• C=CCNC(=O)[C@@H]1[C@H]2C(=O)O[C@H](c3ccccc3)[C@H](c3ccccc3)N2[C@H](c2ccccc2OCCO)[C@@]12C(=O)Nc1ccc(C#CCC(C(=O)OC)C(=O)OC)cc12 = -0.604

Query :: I am curious: what composite z-score value has been reported for `CC1=C2[C@@H](CCc3ccccc3)OB(O)C[C@@H]2[C@@H]2C(=O)N(C)C(=O)[C@@H]2C1` ?
Result :: -0.223

Query :: I am curious: what composite z-score value has been reported for `CCOC(=O)C1=CC[C@@H](c2ccccc2F)N(S(=O)(=O)c2ccc(C)cc2)[C@H]1c1ccccc1` ?
Result :: -0.106

Query :: I am curious: what composite z-score value has been reported for CCN(CC)c1ccc(N2CC=CC34O[C@@H]5/C=C\CCCOC(=O)C5[C@H]3C(=O)N(C(C)CO)[C@@H]4C2=O)cc1 (stereo partly specified) ?
Result :: -0.445

Query :: I am curious: what composite z-score value has been reported for `O=C1N(CCS(=O)(=O)c2ccccc2)c2ccccc2[C@H]2OC(c3ccc(OCCCO)cc3)=N[C@@]12Cc1ccccc1` ?
Result :: 1.08

Query :: I am curious: what composite z-score value has been reported for `CCCC[C@@H]1C[C@H]1[C@@H](NC(=O)c1cccs1)c1ccccc1C(F)(F)F` ?
Result :: 0.49

Query :: I am curious: what composite z-score value has been reported for `Cc1ccc(S[C@]2(C(=O)O)CC(=O)N(C3CCCCC3)[C@@H]2c2ccc(CO)cc2I)cc1` ?
Result :: 0.903

Query :: I am curious: what composite z-score value has been reported for `CCOC(=O)C1=C[C@@H](C(C)(C)C)N(S(=O)(=O)c2ccc(C)cc2)[C@H]1c1cccc2ccccc12` ?
Result :: 0.562

Query :: I am curious: what composite z-score value has been reported for `COC(=O)[C@@H]1N=C(c2ccc(OCCCO)cc2)O[C@@H]1c1ccccc1` ?
Result :: 0.725

Query :: I am curious: what composite z-score value has been reported for `C=C(C(=O)CC[C@H](OC(=O)c1ccccc1-c1ccccc1C(=O)O)c1cccc(OCCO)c1)C(C)C` ?
Result :: -0.265

Query :: I am curious: what composite z-score value has been reported for [N-]=[N+]=Nc1ccccc1C[C@]1(C(=O)NCC(O)CO)COC(c2ccc(OCCCO)cc2)=N1 (stereo partly specified) ?
Result :: 1.18

Query :: I am curious: what composite z-score value has been reported for `C=CC[C@H](OC(=O)Nc1ccc(SC)cc1)c1ccc(O)c2ccccc12` ?
Result :: 0.296

###

Listed here: items and their measured composite z-score.
experiment: probe aNOTCH3 binding on compound microarray – biochemical, small-molecule microarray, 635/667 nm fluorescence, primary screen (AID 1120); conditions: higher = more signal;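 also: probe is a biotin-tagged antibody raised against NOTCH3 rather than NOTCH3 protein; score merges spot fluorescence near 667 nm with spot signal to noise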
Form: value (number only, do not type unit).

// worked examples, composite z-score included
- Cc1ccc(NN2C(C(O)c3c(F)cccc3Cl)C=CC3C(=O)N(C4CCCCC4)C(=O)C32)cc1 (stereo not drawn): 0.102
- NCCCCCNC(=O)[C@H]1C[C@H]2C(=O)N3CCC[C@H]3C(=O)N2[C@H]1c1cccc(OCCO)c1: 0.185

Query :: I am curious: what composite z-score value has been reported for `CCOC(=O)C[C@H]1[C@H](OC(=O)c2ccccc2-c2ccccc2)[C@@H](NC(=O)c2ccc3ccccc3c2)c2cc(OCCCO)ccc2N1C(=O)c1ccccc1` ?
Result :: 0.138

###

test: JC-1 mitochondrial signal, unstimulated adipocytes – cell-based, JC-1 fluorescence, 3T3-L1 adipocytes, 24 h, 100 nL compound, profiling panel (AID 1168); settings: JC-1 mitochondrial fluorescence, higher = more signal, called active from +8 up or from −8 down; also: test concentration not given here
Measured metric: z-score
Form: value (number only, do not type unit).

- [N-]=[N+]=Nc1ccccc1C[C@]1(C(=O)NCC(O)CO)COC(c2ccc(OCCCO)cc2)=N1 (stereo not given in full): -0.257
- NCCCCCNC(=O)[C@@H]1C[C@@H]2C(=O)N[C@@H](CCCCN)C(=O)N2[C@@H]1c1ccc(O)cc1: 1.56
- NC(=O)NCC#Cc1ccc2c(c1)[C@]1(C(=O)N2)[C@H](C(=O)N2CCN(c3ncccn3)CC2)[C@H]2C(=O)O[C@H](c3ccccc3)[C@H](c3ccccc3)N2[C@@H]1c1ccc(O)cc1: -1.02
- CC1CC/C=C\[C@H]2OC34C=CCN(c5ccc6ccccc6c5)C(=O)[C@H]3N(CCCO)C(=O)[C@@H]4C2C(=O)O1 (stereo not given in full): -0.856

Please examine the following record next.
Query :: I am curious: what z-score value has been reported for `C=C(/C(=C/C[C@H](OC(C)=O)c1ccc(CO)o1)c1cnc2ccccc2c1)C(C)C` ?
Result :: -0.524

###

molecular target: Fibroblast growth factor 10 (Homo sapiens); experiment: compounds binding fibroblast growth factor 10 – biochemical, small-molecule microarray, 635 nm fluorescence, primary screen (AID 1102); conditions: FGF10 binding, fluorescence 635 nm, higher = more signal
Listed here: items and their measured composite z-score.
Form: value (number only, do not type unit).

// worked examples, composite z-score included
* COCCOC(=O)N1C(=O)[C@@]2(c3cc(C#CC4=CCCCC4)ccc31)[C@H](c1ccccc1OCCO)N1[C@H](c3ccccc3)[C@H](c3ccccc3)OC(=O)[C@H]1[C@@H]2C(=O)N1CCN(c2ncccn2)CC1 | 0.751
* CC(C)NC(=O)[C@@]1(C)c2ccccc2C(=O)N(Cc2ccc(OC(F)(F)F)cc2)[C@H]1c1ccc(CO)cc1 | -0.962
* N[C@@H](Cc1ccccc1)C(=O)NCc1cn(Cc2ccccc2)nn1 | 0.735
* CCCCC=C[C@@H](NC(=O)OCc1ccccc1Cl)c1ccccc1 | 0.431
* CC(C)C(CO)N1C(=O)[C@@H]2C3C(=O)OCCC/C=C\[C@H]3OC23C=CCN(c2ccc4ccccc4c2)C(=O)[C@@H]13 (some centres not stated) | 0.0329
* COCCOC(=O)N1C(=O)[C@@]2(c3cc(C#CC4(O)CCCCCC4)ccc31)[C@H](C(=O)Nc1nc3ccccc3s1)[C@H]1C(=O)O[C@H](c3ccccc3)[C@H](c3ccccc3)N1[C@@H]2c1ccc(O)cc1 | 0.992

Please examine the following record next.
Query :: What measured composite z-score is associated with `COc1ccc([Si](C)(C)[C@@H]2[C@@H](CC(=O)N3CCC[C@H]3CO)O[C@]3(C(=O)N(Cc4cccc(N5C(=O)COc6ccccc65)c4)c4ccccc43)[C@H]2C)cc1` on Fibroblast growth factor 10 (Homo sapiens)?
Result :: 0.723

###

experiment: COS7 lysate on small-molecule microarray, probe aHis, 635 nm (AID 1123); details: COS7 cell lysate, fluorescence, higher = more signal;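 also: z-score combines 667nm fluorescence intensity with signal-to-noise per printed compound spot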
Listed here: items and their measured composite z-score.

* COC(=O)C/C=C/C[C@]1(O)C(=O)N(C)c2ccccc21 | 0.401

Query :: I am curious: what composite z-score value has been reported for CCCCN1CC=CC23O[C@@H]4/C=C\CCC(C)OC(=O)C4[C@H]2C(=O)N(CCCO)[C@@H]3C1=O (some centres not stated) ?
Result :: -0.0462

Query :: I am curious: what composite z-score value has been reported for `CCCCCCc1nc(Cc2cc(OC)c(OC)c(OC)c2)cc2c1[Si](C(C)C)(C(C)C)OC2` ?
Result :: 0.157

Query :: I am curious: what composite z-score value has been reported for C=CCC(OC(C)=O)[C@@H]1[C@@H](N(Cc2ccc(-c3ccccc3)cc2)C(=O)c2ccc(-c3ccccc3)cc2)c2cc(OCCCO)ccc2N1C(=O)c1ccc2ccccc2c1 (some centres not stated) ?
Result :: 0.937

Query :: I am curious: what composite z-score value has been reported for `CO[C@H]1O[C@H](CO)[C@@H](OC(=O)Nc2ccc(Br)cc2)[C@@H]2OC(=O)[C@@H](Cc3ccccc3)C/C=C/C[C@H](Cc3ccccc3)C(=O)O[C@@H]12` ?
Result :: 1.65

Query :: I am curious: what composite z-score value has been reported for `COc1ccc([Si](C)(C)[C@H]2[C@H](CC(=O)N3CCC[C@H]3CO)O[C@@]3(C(=O)N(Cc4ccc(N5CCOC5=O)cc4)c4ccccc43)[C@@H]2C)cc1` ?
Result :: 1.89

Query :: I am curious: what composite z-score value has been reported for `CC(=O)NCCCC[C@@H]1NC(=O)[C@@H]2C[C@H](C(=O)NCCCCCN)[C@H](c3ccc(O)cc3)N2C1=O` ?
Result :: 1.26
